The following molecules are listed with their measured Ratio Ki values.
- Species on record: Homo sapiens
- Method description: Selectivity ratio Ki for recombinant full length PKC alpha (unknown origin) to Ki for human recombinant full length His-tagged PKC theta
Quantity kind: Ratio Ki

>>> quantitative_readout("NCC1(c2cccc(-c3ccnc4[nH]ncc34)c2)CCOCC1")
93
>>> quantitative_readout("CCC(C)(CN)c1cccc(-c2ccnc3[nH]ncc23)c1 (configuration not stated)")
37
>>> quantitative_readout("C#CCC(C)(CN)c1cccc(-c2ccnc3[nH]ncc23)c1 (configuration not stated)")
149
>>> quantitative_readout("NCC1(c2cccc(-c3ccnc4[nH]ncc34)c2)CCC1")
41
>>> quantitative_readout("NCC1(c2cccc(-c3ccnc4[nH]ncc34)c2)CCCCC1")
18
>>> quantitative_readout("CC(C)(CN)c1cccc(-c2ccnc3[nH]ncc23)c1")
50
>>> quantitative_readout("NCC1(c2cccc(-c3ccnc4[nH]ncc34)c2)CCCC1")
28

---

- Method description: Half-life in iv dosed rat
- Format: ADME, organism-based
- Test settings: in vivo
Quantity kind: half-life

>>> result("CC(C)(C#N)c1cccc(-c2ccnc3[nH]ncc23)c1")
"4.6 h"
>>> result("CCC(C)(CN)c1cccc(-c2ccnc3[nH]nc(C(F)(F)F)c23)c1 (stereo not given)")
"1.8 h"
>>> result("CC(C)(C#N)c1cccc(-c2ccnc3[nH]ccc23)n1")
"0.3 h"
>>> result("NCC1(c2cccc(-c3ccnc4[nH]nc(C(F)(F)F)c34)c2)COC1")
"1.2 h"
>>> result("CC(C)(C#N)c1cccc(-c2ccnc3[nH]ncc23)n1")
"2.5 h"

---

The following compounds are listed with their measured pKa values.
- Method description: Dissociation constant, pKa of compound
- Assay type: physicochemical
Quantity kind: pKa

>>> quantitative_readout("Cc1cc(-c2ccnc3[nH]nc(C(F)(F)F)c23)cc(C2(CN)COC2)c1")
7.9
>>> quantitative_readout("Cc1cc(-c2ccnc3[nH]nc(C(F)(F)F)c23)cc(C2(CN)CCC2)c1")
8.8
>>> quantitative_readout("NCC1(c2cccc(-c3ccnc4[nH]nc(C(F)(F)F)c34)c2)CCC1")
8.8
>>> quantitative_readout("NCC1(c2cccc(-c3ccnc4[nH]nc(C(F)(F)F)c34)c2)COC1")
7.6

---

- Tested on: Tyrosine-protein kinase JAK2 (Homo sapiens, UniProt O60674)
- Sequence (O60674 whole entry): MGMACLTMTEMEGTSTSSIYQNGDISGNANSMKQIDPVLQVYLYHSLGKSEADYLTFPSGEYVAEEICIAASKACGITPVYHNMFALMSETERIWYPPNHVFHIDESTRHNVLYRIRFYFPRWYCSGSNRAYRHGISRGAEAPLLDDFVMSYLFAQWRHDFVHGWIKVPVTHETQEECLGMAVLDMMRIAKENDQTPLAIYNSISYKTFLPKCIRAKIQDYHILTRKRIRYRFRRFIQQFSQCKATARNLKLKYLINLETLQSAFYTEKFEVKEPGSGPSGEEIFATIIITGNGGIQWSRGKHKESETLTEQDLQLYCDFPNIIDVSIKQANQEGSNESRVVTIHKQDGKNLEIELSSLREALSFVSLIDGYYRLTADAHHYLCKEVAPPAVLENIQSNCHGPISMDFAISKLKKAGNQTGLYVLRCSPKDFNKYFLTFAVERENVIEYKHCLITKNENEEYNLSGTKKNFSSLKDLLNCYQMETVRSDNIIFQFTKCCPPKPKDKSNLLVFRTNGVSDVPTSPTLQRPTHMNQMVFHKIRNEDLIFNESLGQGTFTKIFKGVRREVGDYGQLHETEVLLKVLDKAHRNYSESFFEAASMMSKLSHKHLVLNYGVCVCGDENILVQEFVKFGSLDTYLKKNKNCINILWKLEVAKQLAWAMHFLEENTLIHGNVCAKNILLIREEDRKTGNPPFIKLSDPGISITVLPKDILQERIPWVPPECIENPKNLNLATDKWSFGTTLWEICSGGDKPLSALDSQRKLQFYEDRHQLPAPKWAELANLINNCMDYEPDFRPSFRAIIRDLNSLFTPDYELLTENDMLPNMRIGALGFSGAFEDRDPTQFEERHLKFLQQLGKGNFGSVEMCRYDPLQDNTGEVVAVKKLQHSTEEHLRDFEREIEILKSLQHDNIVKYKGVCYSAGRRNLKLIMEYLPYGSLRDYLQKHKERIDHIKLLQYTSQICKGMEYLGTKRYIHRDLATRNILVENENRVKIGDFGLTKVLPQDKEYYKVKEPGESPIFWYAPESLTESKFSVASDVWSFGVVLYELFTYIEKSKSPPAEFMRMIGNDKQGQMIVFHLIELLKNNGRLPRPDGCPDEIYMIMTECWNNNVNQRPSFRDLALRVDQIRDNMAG
Quantity kind: Ki (nM)

>>> quantitative_readout("CC(C)(C#N)c1cccc(-c2ccnc3[nH]ncc23)c1")
270

---

- Method description: Permeability across apical to basolateral side in human Caco2 cells measured at 120 mins by LC-MS/MS analysis
- Format: ADME, cell-based
- Test settings: Caco-2, read-out: permeability
Quantity kind: Papp A→B at 2 h (×10⁻⁶ cm/s)

>>> quantitative_readout("CC(C)(C#N)c1cccc(-c2ccnc3[nH]ncc23)c1")
36
>>> quantitative_readout("NCC1(c2cccc(-c3ccnc4[nH]nc(C(F)(F)F)c34)c2)COC1")
19
>>> quantitative_readout("CC(C)(C#N)c1cccc(-c2ccnc3[nH]ncc23)n1")
20.1

---

- Method description: Clerance in iv dosed dog
- Assay type: ADME, organism-based, Canis lupus familiaris
- Test settings: in vivo
Quantity kind: clearance (L/h/kg)

>>> quantitative_readout("NCC1(c2cccc(-c3ccnc4[nH]nc(C(F)(F)F)c34)c2)COC1")
0.72

---

- Method description: Stability of compound in rat liver microsomes assessed as compound remaining at 30 mins
- Type: ADME, Microsome
- Test settings: read-out: Stability
Rule: measured remaining at 0.5 h below 60% gets t; anything equal to or greater than 60% gets f.

>>> class("Cc1cc(-c2ccnc3[nH]nc(C(F)(F)F)c23)cc(C2(CN)CCC2)c1")
"t"
>>> class("NCC1(c2cccc(-c3ccnc4[nH]nc(C(F)(F)F)c34)c2)COC1")
"f"
>>> class("NCC1(c2cccc(-c3ccnc4[nH]nc(C(F)(F)F)c34)c2)CCOCC1")
"f"
>>> class("NCC1(c2cccc(-c3ccnc4[nH]nc(C(F)(F)F)c34)c2)CCC1")
"f"

---

- Tested on: Protein kinase C beta type (Homo sapiens, UniProt P05771)
- Sequence (P05771 whole entry): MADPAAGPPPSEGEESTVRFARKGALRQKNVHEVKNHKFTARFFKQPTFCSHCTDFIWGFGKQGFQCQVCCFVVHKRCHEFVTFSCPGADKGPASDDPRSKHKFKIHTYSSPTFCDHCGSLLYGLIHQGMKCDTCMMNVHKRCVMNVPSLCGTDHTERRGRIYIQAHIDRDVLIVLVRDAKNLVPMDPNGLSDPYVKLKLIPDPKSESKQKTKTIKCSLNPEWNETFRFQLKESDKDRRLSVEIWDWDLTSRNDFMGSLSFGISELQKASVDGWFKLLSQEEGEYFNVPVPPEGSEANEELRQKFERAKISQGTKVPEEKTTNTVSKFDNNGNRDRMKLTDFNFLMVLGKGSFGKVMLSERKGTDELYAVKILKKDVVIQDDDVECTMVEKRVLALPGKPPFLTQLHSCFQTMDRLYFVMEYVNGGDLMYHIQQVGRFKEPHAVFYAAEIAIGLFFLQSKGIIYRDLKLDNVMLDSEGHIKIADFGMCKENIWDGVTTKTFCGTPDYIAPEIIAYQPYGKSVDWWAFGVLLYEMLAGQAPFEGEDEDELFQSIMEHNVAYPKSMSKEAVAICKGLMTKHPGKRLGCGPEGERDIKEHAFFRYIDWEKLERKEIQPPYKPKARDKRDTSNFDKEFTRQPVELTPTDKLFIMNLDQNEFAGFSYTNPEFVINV
pKi: −log10 of the molar value.
Quantity kind: pKi

>>> quantitative_readout("NCC1(c2cccc(-c3ccnc4[nH]nc(C(F)(F)F)c34)c2)COC1")
5.77

---

The following compounds are listed with their measured efflux ratio values.
- Method description: Efflux ratio of permeability in human Caco2 cells by LC-MS/MS analysis
- Format: ADME, cell-based
- Test settings: Caco-2
Quantity kind: efflux ratio

>>> quantitative_readout("CC(C)(C#N)c1cccc(-c2ccnc3[nH]ncc23)c1")
0.7
>>> quantitative_readout("NCC1(c2cccc(-c3ccnc4[nH]nc(C(F)(F)F)c34)c2)COC1")
2.4
>>> quantitative_readout("CC(C)(C#N)c1cccc(-c2ccnc3[nH]ncc23)n1")
0.95

---

- Tested on: Voltage-gated inwardly rectifying potassium channel KCNH2 (Homo sapiens, UniProt Q12809)
- Sequence (Q12809 whole entry): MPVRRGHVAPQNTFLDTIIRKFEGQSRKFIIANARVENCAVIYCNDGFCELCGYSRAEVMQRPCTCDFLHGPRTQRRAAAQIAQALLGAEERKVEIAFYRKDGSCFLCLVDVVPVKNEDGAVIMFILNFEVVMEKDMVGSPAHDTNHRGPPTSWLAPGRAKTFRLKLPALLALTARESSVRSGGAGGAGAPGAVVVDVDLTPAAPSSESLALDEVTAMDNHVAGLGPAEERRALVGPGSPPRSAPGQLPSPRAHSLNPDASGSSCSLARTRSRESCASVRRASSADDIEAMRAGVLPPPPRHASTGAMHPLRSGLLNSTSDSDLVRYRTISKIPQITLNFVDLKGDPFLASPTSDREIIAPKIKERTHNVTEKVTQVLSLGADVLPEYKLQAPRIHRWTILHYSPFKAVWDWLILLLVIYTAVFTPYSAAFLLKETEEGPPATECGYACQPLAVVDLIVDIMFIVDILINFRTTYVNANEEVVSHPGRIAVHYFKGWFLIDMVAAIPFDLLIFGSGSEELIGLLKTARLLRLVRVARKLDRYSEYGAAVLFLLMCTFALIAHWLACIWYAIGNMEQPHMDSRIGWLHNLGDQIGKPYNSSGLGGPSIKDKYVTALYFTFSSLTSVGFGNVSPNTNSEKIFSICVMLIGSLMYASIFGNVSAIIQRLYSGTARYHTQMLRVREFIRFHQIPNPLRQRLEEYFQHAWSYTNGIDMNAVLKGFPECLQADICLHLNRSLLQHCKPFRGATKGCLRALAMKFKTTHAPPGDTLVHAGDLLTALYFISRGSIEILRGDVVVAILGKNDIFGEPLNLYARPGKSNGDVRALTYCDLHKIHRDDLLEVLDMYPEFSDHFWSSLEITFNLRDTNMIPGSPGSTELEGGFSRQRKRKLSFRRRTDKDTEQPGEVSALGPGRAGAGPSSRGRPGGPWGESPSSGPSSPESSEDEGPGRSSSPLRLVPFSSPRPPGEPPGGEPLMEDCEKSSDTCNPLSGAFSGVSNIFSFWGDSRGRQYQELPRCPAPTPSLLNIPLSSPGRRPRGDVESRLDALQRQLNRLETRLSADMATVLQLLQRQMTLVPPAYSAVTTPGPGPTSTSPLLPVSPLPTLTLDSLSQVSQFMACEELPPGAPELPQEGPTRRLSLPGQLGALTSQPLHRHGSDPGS
The following compounds are listed with their measured IC50 values.
Quantity kind: IC50 (µM)

>>> quantitative_readout("NCC1(c2cccc(-c3ccnc4[nH]nc(C(F)(F)F)c34)c2)CCC1")
3
>>> quantitative_readout("Cc1cc(-c2ccnc3[nH]nc(C(F)(F)F)c23)cc(C2(CN)CCC2)c1")
0.7

---

- Method description: Clearance in iv dosed cynomolgus monkey
- Assay type: ADME, organism-based, Macaca fascicularis
- Test settings: in vivo
Quantity kind: clearance (mL/min/kg)

>>> quantitative_readout("NCC1(c2cccc(-c3ccnc4[nH]nc(C(F)(F)F)c34)c2)COC1")
9

---

The following compounds are listed with their measured logD values.
- Method description: Lipophilicity, logD of compound
- Format: physicochemical
- Test settings: octanol/water
Quantity kind: logD

>>> quantitative_readout("NCC1(c2cccc(-c3ccnc4[nH]nc(C(F)(F)F)c34)c2)COC1")
1.7
>>> quantitative_readout("Cc1cc(-c2ccnc3[nH]nc(C(F)(F)F)c23)cc(C2(CN)COC2)c1")
2.2
>>> quantitative_readout("CC(C)(C#N)c1cccc(-c2ccnc3[nH]ncc23)n1")
2.9
>>> quantitative_readout("CC(C)(C#N)c1cccc(-c2ccnc3[nH]ccc23)n1")
3.4
>>> quantitative_readout("Cc1cc(-c2ccnc3[nH]nc(C(F)(F)F)c23)cc(C2(CN)CCC2)c1")
2.9

---

- Method description: Half-life in iv dosed dog
- Format: ADME, organism-based, Canis lupus familiaris
- Test settings: in vivo
Quantity kind: half-life (h)

>>> quantitative_readout("NCC1(c2cccc(-c3ccnc4[nH]nc(C(F)(F)F)c34)c2)COC1")
6.2

---

- Method description: Volume of distribution at steady state in iv dosed rat
- Assay type: ADME, organism-based
- Test settings: in vivo, read-out: Vdss
Quantity kind: Vd

>>> result("CC(C)(C#N)c1cccc(-c2ccnc3[nH]ncc23)n1")
"1.22 L/kg"
>>> result("CCC(C)(CN)c1cccc(-c2ccnc3[nH]nc(C(F)(F)F)c23)c1 (centres undefined)")
"2.7 L/kg"
>>> result("CC(C)(C#N)c1cccc(-c2ccnc3[nH]ccc23)n1")
"0.99 L/kg"
>>> result("CC(C)(C#N)c1cccc(-c2ccnc3[nH]ncc23)c1")
"0.94 L/kg"

---

- Method description: Thermodynamic solubility of compound in sodium phosphate buffer at pH 7.4
- Format: physicochemical
- Test settings: read-out: Therm_solubility
Quantity kind: solubility thermodynamic (µM)

>>> quantitative_readout("NCC1(c2cccc(-c3ccnc4[nH]nc(C(F)(F)F)c34)c2)COC1")
515

---

- Tested on: Glycogen synthase kinase-3 beta (Homo sapiens)
- Sequence (P49841 whole entry): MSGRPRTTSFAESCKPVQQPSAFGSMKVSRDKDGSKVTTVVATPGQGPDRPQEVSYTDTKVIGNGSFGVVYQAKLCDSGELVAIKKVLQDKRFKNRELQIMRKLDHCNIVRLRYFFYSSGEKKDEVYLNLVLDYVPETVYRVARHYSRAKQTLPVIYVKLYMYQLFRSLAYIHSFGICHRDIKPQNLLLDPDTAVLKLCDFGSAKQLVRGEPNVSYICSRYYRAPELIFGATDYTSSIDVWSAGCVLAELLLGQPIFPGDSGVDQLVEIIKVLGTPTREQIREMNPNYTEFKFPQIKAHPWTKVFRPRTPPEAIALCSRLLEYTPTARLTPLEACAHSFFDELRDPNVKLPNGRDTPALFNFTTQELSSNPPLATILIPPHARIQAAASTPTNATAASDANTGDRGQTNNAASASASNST
pKi: −log10 of the molar value.
Quantity kind: pKi

>>> quantitative_readout("CC(C)(C#N)c1cccc(-c2ccnc3[nH]ccc23)n1")
6.68

---

- Method description: Stability of compound in human liver microsomes assessed as compound remaining at 30 mins
- Assay type: ADME, Microsome
- Test settings: read-out: Stability
Quantity kind: remaining at 0.5 h (%)

>>> quantitative_readout("NCC1(c2cccc(-c3ccnc4[nH]nc(C(F)(F)F)c34)c2)COC1")
100
>>> quantitative_readout("Cc1cc(-c2ccnc3[nH]nc(C(F)(F)F)c23)cc(C2(CN)CCC2)c1")
81
>>> quantitative_readout("NCC1(c2cccc(-c3ccnc4[nH]nc(C(F)(F)F)c34)c2)CCC1")
81
>>> quantitative_readout("NCC1(c2cccc(-c3ccnc4[nH]nc(C(F)(F)F)c34)c2)CCOCC1")
96
>>> quantitative_readout("Cc1cc(-c2ccnc3[nH]nc(C(F)(F)F)c23)cc(C2(CN)COC2)c1")
86

---

- Tested on: Tyrosine-protein kinase JAK3 (Homo sapiens)
- Sequence (P52333 whole entry): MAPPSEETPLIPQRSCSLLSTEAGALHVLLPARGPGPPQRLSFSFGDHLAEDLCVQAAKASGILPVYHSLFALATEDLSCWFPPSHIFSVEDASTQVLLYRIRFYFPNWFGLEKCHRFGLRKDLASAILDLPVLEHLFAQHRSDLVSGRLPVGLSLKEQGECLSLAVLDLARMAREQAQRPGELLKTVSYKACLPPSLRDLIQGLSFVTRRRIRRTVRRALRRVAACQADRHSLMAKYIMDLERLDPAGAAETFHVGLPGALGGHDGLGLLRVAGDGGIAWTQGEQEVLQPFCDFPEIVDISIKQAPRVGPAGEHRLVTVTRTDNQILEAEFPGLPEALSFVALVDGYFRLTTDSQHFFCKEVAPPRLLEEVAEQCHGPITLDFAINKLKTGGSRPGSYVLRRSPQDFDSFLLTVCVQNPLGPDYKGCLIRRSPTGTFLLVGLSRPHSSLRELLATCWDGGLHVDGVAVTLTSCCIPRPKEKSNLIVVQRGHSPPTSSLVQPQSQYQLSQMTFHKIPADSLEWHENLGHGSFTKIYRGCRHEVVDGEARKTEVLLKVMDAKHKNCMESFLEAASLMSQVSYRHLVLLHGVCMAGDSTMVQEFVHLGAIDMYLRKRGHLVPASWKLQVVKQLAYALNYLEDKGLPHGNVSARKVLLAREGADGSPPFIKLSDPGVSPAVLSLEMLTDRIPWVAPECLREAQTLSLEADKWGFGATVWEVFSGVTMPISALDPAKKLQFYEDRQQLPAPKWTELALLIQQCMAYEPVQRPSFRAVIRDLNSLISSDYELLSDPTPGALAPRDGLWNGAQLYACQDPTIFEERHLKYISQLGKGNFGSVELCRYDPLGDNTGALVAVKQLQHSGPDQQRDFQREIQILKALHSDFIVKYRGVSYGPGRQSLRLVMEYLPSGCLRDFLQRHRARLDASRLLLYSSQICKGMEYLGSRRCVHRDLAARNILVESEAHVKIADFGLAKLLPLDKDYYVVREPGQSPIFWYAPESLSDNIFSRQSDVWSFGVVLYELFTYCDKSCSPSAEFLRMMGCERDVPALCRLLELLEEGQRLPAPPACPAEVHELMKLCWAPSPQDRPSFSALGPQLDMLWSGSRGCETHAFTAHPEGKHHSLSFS
pKi: −log10 of the molar value.
Quantity kind: pKi

>>> quantitative_readout("CC(C)(C#N)c1cccc(-c2ccnc3[nH]ccc23)n1")
8.52
